# System: HT-22
# testName: Neuroprotective activity against glutamate-induced cell death in mouse HT-22 cells assessed as increase in cell viability after 24 hrs by EZ-Cytox assay
# Format: functional, cell-based
# conditionContext: HT-22, 24 h
pEC50: −log10 of the molar value.
Outcome label depends on pEC50 relative to 4: at/above gives rule met, below gives rule not met.

>>> labelvalue("COc1ccc(-c2cc(=O)c3c(O)cc(O[C@@H]4O[C@H](CO[C@@H]5O[C@@H](C)[C@H](OC(C)=O)[C@@H](O)[C@H]5O)[C@@H](O)[C@H](O)[C@H]4O[C@@H]4O[C@H](CO)[C@@H](O)[C@H](O)[C@H]4O)cc3o2)cc1")
"rule met"
>>> labelvalue("O=c1cc(-c2ccc(O)cc2)oc2cc(O)cc(O)c12")
"rule not met"
>>> labelvalue("COc1cc(C(=O)O)ccc1O")
"rule met"
>>> labelvalue("COc1ccc(-c2cc(=O)c3c(O)cc(O[C@@H]4O[C@H](CO[C@@H]5O[C@@H](C)[C@H](OC(C)=O)[C@@H](O)[C@H]5O)[C@@H](O)[C@H](O)[C@H]4O)cc3o2)cc1")
"rule not met"
>>> labelvalue("O=C1C[C@@H](c2ccc(O)c(O)c2)Oc2c1ccc(O)c2O")
"rule met"
>>> labelvalue("CC(=O)N[C@@H](CS)C(=O)O")
"rule not met"
>>> labelvalue("COc1ccc(/C=C/C(=O)c2ccc(O[C@@H]3O[C@H](CO)[C@@H](O)[C@H](O)[C@H]3O)cc2O)cc1O")
"rule met"
>>> labelvalue("O=Cc1ccc(O)cc1 [4-HYDROXYBENZALDEHYDE]")
"rule met"
